Biological target: T1, CAPRIN-1 protein expressed on the membrane surface of human cancer cells (human, UniProt Q14444 2-709)
T1 sequence (looked up): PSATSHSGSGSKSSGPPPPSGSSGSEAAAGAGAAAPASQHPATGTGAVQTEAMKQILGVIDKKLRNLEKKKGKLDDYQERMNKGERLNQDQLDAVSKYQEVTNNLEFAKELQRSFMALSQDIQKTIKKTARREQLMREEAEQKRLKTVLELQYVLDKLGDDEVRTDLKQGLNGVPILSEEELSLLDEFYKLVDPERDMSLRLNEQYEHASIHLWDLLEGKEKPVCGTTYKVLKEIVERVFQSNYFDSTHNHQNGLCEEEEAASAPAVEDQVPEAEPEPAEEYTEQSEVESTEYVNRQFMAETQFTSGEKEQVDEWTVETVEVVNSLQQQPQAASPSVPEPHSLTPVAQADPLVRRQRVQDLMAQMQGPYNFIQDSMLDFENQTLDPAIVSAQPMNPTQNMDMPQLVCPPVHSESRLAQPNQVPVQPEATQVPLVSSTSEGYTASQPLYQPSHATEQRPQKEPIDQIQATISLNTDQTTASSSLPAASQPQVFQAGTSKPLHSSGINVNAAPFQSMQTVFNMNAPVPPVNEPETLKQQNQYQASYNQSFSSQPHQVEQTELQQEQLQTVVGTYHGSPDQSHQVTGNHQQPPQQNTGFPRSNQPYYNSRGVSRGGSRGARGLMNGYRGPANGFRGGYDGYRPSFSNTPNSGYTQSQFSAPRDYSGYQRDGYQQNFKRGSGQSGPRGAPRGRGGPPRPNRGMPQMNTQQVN
Experiment: cell-based or functional assay
Property Label: ADCC cytotoxic activity (51Cr release) on NT/D1

Binder	Value Observed
humanized antibody #1 (antibody, V domains shown) VH: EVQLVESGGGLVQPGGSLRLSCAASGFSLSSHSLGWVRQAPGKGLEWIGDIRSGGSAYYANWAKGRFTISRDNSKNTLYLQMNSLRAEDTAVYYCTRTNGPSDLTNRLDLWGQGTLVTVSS VL: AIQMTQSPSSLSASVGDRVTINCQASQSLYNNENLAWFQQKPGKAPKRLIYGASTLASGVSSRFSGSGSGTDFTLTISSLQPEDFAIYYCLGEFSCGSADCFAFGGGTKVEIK	≥ 25%
humanized antibody #2 (antibody, V domains shown) VH: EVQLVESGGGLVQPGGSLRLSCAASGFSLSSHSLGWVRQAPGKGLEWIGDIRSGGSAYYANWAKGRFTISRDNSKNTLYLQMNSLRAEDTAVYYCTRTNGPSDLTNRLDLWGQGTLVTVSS VL: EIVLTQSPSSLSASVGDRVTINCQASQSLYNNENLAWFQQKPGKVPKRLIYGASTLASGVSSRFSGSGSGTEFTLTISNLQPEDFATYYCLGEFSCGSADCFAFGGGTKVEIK	≥ 30%
humanized antibody #8 (antibody, V domains shown) VH: QSLVESGGGLVQPGGSLRLSCAASGFSLSSHSLGWVRQAPGKGLEWIGDIRSGGSAYYANWAKGRFTISRTSSKNTVYLQMNSLRAEDTAVYFCTRTNGPSDLTNRLDLWGQGTLVTVSS VL: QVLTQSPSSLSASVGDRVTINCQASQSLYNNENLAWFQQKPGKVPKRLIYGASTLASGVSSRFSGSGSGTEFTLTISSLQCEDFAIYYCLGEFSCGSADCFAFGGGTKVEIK	≥ 25%
